Molecular target: human CD40 on cells (HEK293 stable transfectants, HEK-Blue CD40 cells, human B cells, monocytic cells, … (human, UniProt P25942 21-277))
Sequence (P25942 21-277 limits assumed): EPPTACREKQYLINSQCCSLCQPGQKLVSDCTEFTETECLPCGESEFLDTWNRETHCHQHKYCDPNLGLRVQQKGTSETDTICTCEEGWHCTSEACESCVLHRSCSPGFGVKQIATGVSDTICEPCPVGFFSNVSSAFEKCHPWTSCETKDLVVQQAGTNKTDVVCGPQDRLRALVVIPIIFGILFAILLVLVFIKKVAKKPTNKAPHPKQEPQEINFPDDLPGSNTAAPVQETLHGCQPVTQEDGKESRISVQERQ
Test: cell-based or functional assay
Consider the following binders; for each one, report its Monocyte activation (THP1-Xblue, OD655).

AD163.162.1 (antibody, V domains shown, mouse hybridoma antibody; also called muAb6) VH: QVQLQQPGAELVRPGSSVKLSCKASGYTFTSYWMHWVKQRPIQGLEWIGNIDPSNGETHYNQKFKDKATLTVDKSSSTAYMQLSSLTSEDSAVYYCARERIYYSGSTYDGYFDVWGTGTTVTVSS VL: QIVLTQSPAIMSASPGEKVTMTCSASSSLSYMHWYQQKSGTSPKRWIYDTSKLASGVPARFSGSGSGTSYSLTISSMEAEDAATYYCQQWSSNPWTFGGGTKLEIK | 0.11 OD655

Field: next binder
So for AD175.14.11 (antibody, V domains shown, mouse hybridoma antibody; also called muAb3) VH: EVQLQQSGPELVKPGASVKISCKASGYTFTDYYMNWVKQSHGKSLEWIGDINPNNGGTSYNQKFKGKATLTVDKSSSTAYMELRSLTSEDSAVYYCARRGGLGRGTYALDYWGQGTSVTVSS VL: DIQMTQTTSSLSASLGDRVTISCRASQDISNYLNWYQQKPDGTVKPLIYYTSRLHLGVPSRFSGSGSGTDYSLTISNLEQEDIATYFCQQGNTLPLTFGAGTKLELK , the logged Monocyte activation (THP1-Xblue, OD655) turned out to be 0.2 OD655
